The measurements presented in this section are drawn from the supplement of paper PMC8967900.

# Tested on: MOLT-16
# EXPERIMENTAL DETAILS: selective drug sensitivity score (sDSS, relative to normal bone marrow) (sDSS (score)); higher = more potent and effective on the cell line relative to normal bone marrow cells;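 note: ALL cell lines in 384-well plates, five doses spanning 10,000-fold, each plate scaled between vehicle and 100 µmol/L benzalkonium chloride controls, sDSS an adapted area-under-curve metric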
# CONDITION INFO: 72 h
Please respond with reported selective drug sensitivity score for every item in the list.
// no unit, no text: just the number

Which selective drug sensitivity score is reported with MOLT-16 for this entry: Cn1ncc(Cl)c1-c1cc(C(=O)N[C@H](CN)Cc2cccc(F)c2)sc1Cl [Afuresertib] (top concentration 1000 nM) ?
10.4

Which selective drug sensitivity score is reported with MOLT-16 for this entry: Cc1cc(Nc2ncc(Cl)c(Nc3ccccc3S(=O)(=O)C(C)C)n2)c(OC(C)C)cc1C1CCNCC1 [Ceritinib] (top concentration 2500 nM) ?
-3.44

Which selective drug sensitivity score is reported with MOLT-16 for this entry: Cc1ccc(C(=O)N(CCCN)[C@@H](c2oc3cc(Cl)ccc3c(=O)c2Cc2ccccc2)C(C)C)cc1 (top concentration 100 nM) ?
7.46

Which selective drug sensitivity score is reported with MOLT-16 for this entry: O[C@H]1CC[C@H](Nc2ncc3nc(Nc4c(F)cc(F)cc4F)n([C@H]4CCOC4)c3n2)CC1 [Tanzisertib] (top concentration 10000 nM) ?
0

Which selective drug sensitivity score is reported with MOLT-16 for this entry: CN1CCc2c(c3ccccc3n2Cc2ccc(C(=O)NO)cc2)C1 [Tubastatin_A] (top concentration 10000 nM) ?
2.86

Which selective drug sensitivity score is reported with MOLT-16 for this entry: COc1cc(C)[nH]c(=O)c1CNC(=O)c1c(C)n([C@H](C)C2CCOCC2)c2ccccc12 [CPI-360] (top concentration 10000 nM) ?
0

Which selective drug sensitivity score is reported with MOLT-16 for this entry: CC1CCC(n2c3cnccc3c3cnc(Nc4ccc5c(n4)CCN(C(=O)CO)C5)nc32)CC1 (stereo unspecified) [AMG-925] (top concentration 1000 nM) ?
10.5

Which selective drug sensitivity score is reported with MOLT-16 for this entry: CCn1c(C(=O)N(C2CC2)C2CC2)cc2c3c(ncn3C)c(Nc3cc(C)n(C)n3)nc21 (top concentration 10000 nM) ?
-4.36

Which selective drug sensitivity score is reported with MOLT-16 for this entry: Cc1cc(-c2ncc(CC(=O)Nc3ccc(-c4cnccn4)cn3)cc2C)ccn1 [NVP-LGK974] (top concentration 10000 nM) ?
4.9

Which selective drug sensitivity score is reported with MOLT-16 for this entry: CN[C@@H](C)C(=O)N[C@H]1CN(C(=O)CC(C)C)CC[C@H]2CC[C@@H](C(=O)NC(c3ccccc3)c3ccccc3)N2C1=O [AT-406] (top concentration 10000 nM) ?
-1.26

Which selective drug sensitivity score is reported with MOLT-16 for this entry: Nc1ncnc2c1nc(Cl)n2[C@@H]1O[C@H](CO)[C@@H](O)[C@H]1O [8-chloro-adenosine] (top concentration 50000 nM) ?
7.1

Which selective drug sensitivity score is reported with MOLT-16 for this entry: Nc1ncnc2c1c(COc1cccc(Cl)c1)nn2C1CCOCC1 (top concentration 10000 nM) ?
-0.64

Which selective drug sensitivity score is reported with MOLT-16 for this entry: COc1cc(N2CCC(N3CCN(C)CC3)CC2)ccc1Nc1ncc(Cl)c(Nc2ccccc2P(C)(C)=O)n1 [Brigatinib] (top concentration 1000 nM) ?
-3.34

Which selective drug sensitivity score is reported with MOLT-16 for this entry: CNC(=O)c1ccc2cc([C@@]3(O)CCn4cncc43)ccc2c1 [Orteronel] (top concentration 10000 nM) ?
0

Which selective drug sensitivity score is reported with MOLT-16 for this entry: C#Cc1cccc(Nc2ncnc3cc4c(cc23)OCCOCCOCCO4)c1 [Icotinib] (top concentration 10000 nM) ?
2.2

Which selective drug sensitivity score is reported with MOLT-16 for this entry: C=C1C[C@@H]2[C@H](CC[C@]3(C)C(=O)CC[C@@H]23)[C@@]2(C)C=CC(=O)C=C12 [Exemestane] (top concentration 10000 nM) ?
-1.7

Which selective drug sensitivity score is reported with MOLT-16 for this entry: N#CCNC(=O)c1ccc(-c2ccnc(Nc3ccc(N4CCOCC4)cc3)n2)cc1 [Momelotinib] (top concentration 10000 nM) ?
0.28

Which selective drug sensitivity score is reported with MOLT-16 for this entry: CCc1nc(C(N)=O)c(Nc2ccc(N3CCC(N4CCN(C)CC4)CC3)c(OC)c2)nc1NC1CCOCC1 [Gilteritinib] (top concentration 1000 nM) ?
-2.52

Which selective drug sensitivity score is reported with MOLT-16 for this entry: N[C@@H]1CCCN(c2c(/C=C3\SC(=O)NC3=O)cccc2-c2ccccc2)C1 [AZD1208] (top concentration 10000 nM) ?
-4.4

Which selective drug sensitivity score is reported with MOLT-16 for this entry: Nc1ncn([C@@H]2O[C@H](CO)[C@@H](O)[C@H]2O)c(=O)n1 [Azacitidine] (top concentration 10000 nM) ?
7.14

Which selective drug sensitivity score is reported with MOLT-16 for this entry: CC(C)(C)c1cnc(CSc2cnc(NC(=O)C3CCNCC3)s2)o1 [SNS-032] (top concentration 10000 nM) ?
-0.64

Which selective drug sensitivity score is reported with MOLT-16 for this entry: NC[C@@](O)(c1ccc(Cl)cc1)c1ccc(-c2cn[nH]c2)cc1 (top concentration 10000 nM) ?
0.38

Which selective drug sensitivity score is reported with MOLT-16 for this entry: CC(C)n1cnc2c(NCCc3ccc(O)cc3)nc(-c3csc4ccccc34)nc21 [StemRegenin_1] (top concentration 10000 nM) ?
4.4

Which selective drug sensitivity score is reported with MOLT-16 for this entry: Cn1c(Nc2ccc(C(F)(F)F)cc2)nc2cc(Oc3ccnc(-c4ncc(C(F)(F)F)[nH]4)c3)ccc21 [NVP-RAF265] (top concentration 1000 nM) ?
8.68

Which selective drug sensitivity score is reported with MOLT-16 for this entry: CCN(CC)CCCC(C)Nc1ccnc2cc(Cl)ccc12 (stereo unspecified) [Chloroquine] (top concentration 100000 nM) ?
-3.14

Which selective drug sensitivity score is reported with MOLT-16 for this entry: O=C(c1cc(Cc2n[nH]c(=O)c3ccccc23)ccc1F)N1CCN(C(=O)C2CC2)CC1 [Olaparib] (top concentration 10000 nM) ?
9.08

---

# System: ALL-PO
# EXPERIMENTAL DETAILS: selective drug sensitivity score (sDSS, relative to normal bone marrow) (sDSS (score)); higher = more potent and effective on the cell line relative to normal bone marrow cells
# CONDITION INFO: 72 h
Respond with Condition met for selective drug sensitivity score values of 4 and above, Condition not met for values below.

Threshold query (selective drug sensitivity score >= 4) on O=C(Nc1cccc(Nc2ncc(Br)c(NCCc3cnc[nH]3)n2)c1)N1CCCC1 [BX-912] (top concentration 10000 nM)
Condition met

Threshold query (selective drug sensitivity score >= 4) on CC(C)NC(=O)COc1cccc(-c2nc(Nc3ccc4[nH]ncc4c3)c3ccccc3n2)c1 [KD025] (top concentration 5000 nM)
Condition met

Threshold query (selective drug sensitivity score >= 4) on CC(C)C(=O)Nc1ccc([N+](=O)[O-])c(C(F)(F)F)c1 [Flutamide] (top concentration 10000 nM)
Condition not met

Threshold query (selective drug sensitivity score >= 4) on CN1CCc2c(c3ccccc3n2Cc2ccc(C(=O)NO)cc2)C1 [Tubastatin_A] (top concentration 10000 nM)
Condition not met

Threshold query (selective drug sensitivity score >= 4) on CCn1cc(-c2ccnc3[nH]c(-c4cccc(CN(C)C)c4)cc23)c(-c2ccc(NC(=O)N(C)C)cc2)n1 (top concentration 1000 nM)
Condition met

Threshold query (selective drug sensitivity score >= 4) on Cn1ncc(Cl)c1-c1cc(C(=O)N[C@H](CN)Cc2cccc(F)c2)sc1Cl [Afuresertib] (top concentration 1000 nM)
Condition met

---

# System: CCRF-HSB2
# EXPERIMENTAL DETAILS: selective drug sensitivity score (sDSS, relative to normal bone marrow) (sDSS (score)); higher = more potent and effective on the cell line relative to normal bone marrow cells
# CONDITION INFO: 72 h
Respond with YES for selective drug sensitivity score values of 0 and above, NO for values below.

Threshold query (selective drug sensitivity score >= 0) on Cn1cnc2c(F)c(Nc3ccc(Br)cc3F)c(C(=O)NOCCO)cc21 [Binimetinib] (top concentration 1000 nM)
NO

Threshold query (selective drug sensitivity score >= 0) on Cc1nc(C(=O)NCC(=O)O)c(O)c2ccc(Oc3ccccc3)cc12 [Roxadustat] (top concentration 10000 nM)
NO

Threshold query (selective drug sensitivity score >= 0) on CN(C)C[C@@H]1CCn2cc(c3ccccc32)C2=C(C(=O)NC2=O)c2cn(c3ccccc23)CCO1 [Ruboxistaurin] (top concentration 10000 nM)
YES

Threshold query (selective drug sensitivity score >= 0) on C=C1C[C@@H]2CC[C@@]34C[C@H]5O[C@H]6[C@@H](O3)[C@H]3O[C@H](CC[C@@H]3O[C@H]6[C@H]5O4)CC(=O)C[C@@H]3[C@@H](OC)[C@@H](C[C@H](O)CN)O[C@H]3C[C@H]3O[C@@H](CC[C@@H]1O2)C[C@@H](C)C3=C [Eribulin] (top concentration 1000 nM)
YES

Threshold query (selective drug sensitivity score >= 0) on Cc1ccc(C(=O)Nc2cccc(C(F)(F)F)c2)cc1Nc1nc(-c2cccnc2)nc2c1cnn2C [NVP-BHG712] (top concentration 10000 nM)
YES
